Collected logD values appear next to each entry.
- measurement-protocol: physchem
- condition-set: octan-1-ol/water, pH 7.4, LogD7.4
// no unit, no text: just the number

Here are 5 compounds together with their reported answers.
In [3]: df
Out[3]:
                                   compound  numeric_readout
0  CC(C)C[C@H](CO)Nc1nc(SCc2ccccc2F)nc2nc(N)sc12              4.5
1  COc1cc(C(=O)NS(=O)(=O)c2ccccc2)ccc1Cn1ncc2ccc(NC(=O)CC3CCCC3)cc21              1.6
2  c1ccc([C@H]2CN3CCSC3=N2)cc1 [LEVAMISOLE]             0.81
3  COc1cc(C(=O)NS(=O)(=O)c2ccccc2)ccc1Cn1ccc2ccc(C(=O)NCC3CCCC3)cc21             1.93
4  Cc1ccc(NC(=O)c2cccc(N(C)C)c2)cc1NC(=O)c1ccc(OC(C)C)cc1              3.1

Next compound, logD to be filled in.
## Input Hello, please tell me recorded logD for this one: "O=C(Nc1cccc(-c2nnn[nH]2)c1)c1cc(F)cc2nc[nH]c12"
## Output 0.29

---

- measurement-protocol: physchem
- condition-set: octan-1-ol/water, pH 7.4, LogD7.4
measured-property: logD

The cases that follow already have their logD on record.
                                   compound  measured_property  result
0      CN1CCN(C(=O)c2cc3cc(Br)ccc3[nH]2)CC1               logD    2.79
1  NC1(C(=O)NC(CCCN2CCOCC2)c2ccc(Cl)cc2)CCN(c2ncnc3[nH]ccc23)CC1 (stereo unspecified)               logD     2.7

## Input Let me know recorded logD for "Cn1c(N)nc(CCc2ccc3cc[nH]c3c2)cc1=O" , thanks.
## Output 2.1

## Input Entry "O=C(Nc1ccc(N2CCOCC2)c(F)c1)c1nnc(Nc2ccccc2F)o1" needs its logD filled in; supply it.
## Output 3.6

## Input Find the measured logD of O=C(NC1CCCC1)C(c1ccncc1)N(Cc1ccco1)C(=O)c1ccc(-c2ccccc2)[nH]1 (stereo unspecified) and report it.
## Output 4.36

---

- measurement-protocol: physchem
- condition-set: octan-1-ol/water, pH 7.4, LogD7.4
Measured logD accompanies every entry in the list below.
Field format: numeric only.

Answered examples (3):
                                   compound  numeric_readout
0  CCN(CCNCCc1ccc(O)c2[nH]c(=O)sc12)C(=O)CCOCCc1ccccc1             1.92
1  O=C(NCC12CC3CC(CC(C3)C1)C2)c1cc(OCCCNCCCO)ccc1Cl             1.41
2  Cc1nn(-c2ccc(F)cc2)c(NS(=O)(=O)c2cccnc2)c1C(=O)N[C@@H](C)C(C)(C)C              0.4

## Input # return recorded logD for input "NC(=O)c1cnc(N[C@H]2CCCNC2)c2cc(-c3ccc(F)c(F)c3)sc12"
## Output 2.17

## Input Provide only the value of recorded logD for "CCCCN1Cc2c(nc3cc(-c4ccco4)nn3c2O)C1=O"
## Output 0.8

## Input Give logD for the following compound: CCCS(=O)(=O)c1ccc(C(CNS(=O)(=O)c2ccc(C(F)(F)F)cc2)N2CCCCCC2)cc1 (stereo unspecified)
## Output 3.32

## Input Output logD of "COc1cc(F)ccc1-c1cncc(CNC2CCCCC2)c1"
## Output 2.6

## Input // fetch logD given entry "Cc1cc(C)nc(N)c1"
## Output 0.85

## Input Give recorded logD. "Cc1nc(C(=O)N2CCCC3(CCN(Cc4ccccc4)CC3)C2)cs1"
## Output 0.24

## Input Return logD for the following compound: "CC(=O)NCc1ccc(CN2CCN(c3ccccc3)CC2)cc1"
## Output 1.78

## Input Query logD for "Cc1cc(Nc2ncc(F)c(N[C@H]3[C@@H](C(N)=O)[C@@H]4C=C[C@H]3C4)n2)ccc1N1CCN(C)CC1"
## Output 2.9

## Input For the compound "CN[C@@H](C)C(=O)N[C@H](C(=O)N[C@H]1CCCN(CCc2ccccc2F)C1)C1CCCCC1" , give its measured logD value.
## Output 2.51

## Input Retrieve logD measured for "O=C(N[C@@H](Cc1ccc(OCCNc2ccccn2)cc1)C(=O)O)c1c(Cl)cccc1Cl" and print it.
## Output -0.48

## Input Consider the compound "Cc1cc(Nc2nc(N[C@@H](C)c3ncc(F)cn3)ncc2Br)n[nH]1" and give its recorded logD.
## Output 2.39

## Input Give a short answer stating reported logD for "Cc1ccc(NC(=O)c2cccc(N3CCOCC3)c2)cc1NC(=O)c1ccc(OCc2ccncc2)cc1" .
## Output 3.2

## Input Using the record for Cc1cc(CN2Cc3ccccc3C2C(=O)Nc2ccc(Cl)cc2)ccc1OCC(=O)O (stereo unspecified) , state its measured logD.
## Output 1.38

## Input Report logD, nothing else, for this compound: "CC(=O)Nc1ccccc1C"
## Output 1

## Input Determine from records and report logD for "O=S(=O)(Nc1nc(-c2sccc2Cl)cs1)c1cc(Cl)ccc1Cl"
## Output 2.11

## Input Please give measured logD of the following entry: "Oc1ccc(-c2nc3ccccc3nc2-c2ccc(O)cc2)cc1"
## Output 2.7

## Input Answer with reported logD of "COc1ccc(-c2cc(N)n3ncc(C#N)c3n2)cc1"
## Output 2.42

## Input Output logD of "O=C(O)c1c(Sc2ccccc2)c2cc(Cl)ccc2n1Cc1ccc(Cl)cc1"
## Output 2.96

## Input Give the reported logD for this compound. "CN(C)C(=O)C1(N2CCCCC2=O)CCN(CC[C@H](CN(C)C(=O)c2cc(C#N)cc3ccccc23)c2ccc(Cl)c(Cl)c2)CC1"
## Output 2.52

## Input For the compound "Cc1ccc2[nH]c(C(=O)N3CCN(C)CC3)cc2c1" , give its measured logD value.
## Output 2.22

## Input Tell me measured logD for "C[C@H](CO)Nc1nc(SCc2ccccc2)nc2[nH]c(=O)sc12" please.
## Output 2.86

---

- measurement-protocol: physchem
- condition-set: pH 7.4 buffer
measured-property: log10 solubility thermodynamic (log10 of the value in µM)
Response schema: value (number) is log10 of solubility thermodynamic in units of µM.

>>> print(df.to_string())
                                   compound               measured_property  numeric_readout
0  CS(=O)(=O)c1ccc2[nH]c3c(c2c1)CN(C(=O)[C@@H]1CCCC[C@H]1C(=O)NC1(C#N)CC1)CC3  log10 solubility thermodynamic             2.28

## Input # return recorded log10 solubility thermodynamic for input "Cc1cc(S(=O)(=O)Nc2nc(Nc3ccc(Cl)cc3)n[nH]2)c(S)cc1Cl"
## Output 1.94

## Input Give reported log10 solubility thermodynamic value for "COc1ccc(Cl)c(Nc2ncnc3cc(OCCCN4CCN(C(C)=O)CC4)cc(OC(C)C)c23)n1"
## Output 1.70

## Input Name the recorded log10 solubility thermodynamic of the item "CC/C(=C(/c1ccc(O)cc1)c1ccc(/C=C/C(=O)O)cc1)c1ccccc1" in your answer.
## Output 0.00

## Input Give the value of log10 solubility thermodynamic reported for the following: "COc1cc(OC2CN(C(C)=O)C2)ccc1Nc1ncc(Cl)c(-c2cnc3ccccn23)n1"
## Output 0.23

## Input Supply log10 solubility thermodynamic value. Item: "CN1CCN(c2nc3ccccc3cc2Cn2nc(-c3ccc4nc(N)sc4c3)c3c(N)ncnc32)CC1"
## Output 2.00

## Input State, in one line, measured log10 solubility thermodynamic of "NC(=O)Nc1cc(-c2ccccc2)sc1C(N)=O"
## Output 1.23

---

- measurement-protocol: physchem
Note to self: values exactly at 6 are Satisfied. So pKa at or above 6 is Satisfied, below is Not satisfied.

Solved cases (5 shown):
                                   compound          label
0  CCOC(=O)[C@H](CCc1ccccc1)N[C@@H](C)C(=O)N1CCC[C@H]1C(=O)O  Not satisfied
1     NCC1Cc2c1ccc(O)c2O (stereo not given)      Satisfied
2  O=C(NCC12CC3CC(CC(C3)C1)C2)c1cc(-n2ncc(=O)[nH]c2=O)ccc1Cl      Satisfied
3  CCc1nc2cc(O)ccc2c(Oc2ccc(/C=C/C(=O)O)cc2)c1-c1ccccc1  Not satisfied
4             Cc1cn(Cc2ccccc2)c(=O)[nH]c1=O      Satisfied

From here, focus on the item given below.
## Input Identify whether the reported pKa of the following compound is 6 or greater: "N#Cc1sccc1NS(=O)(=O)c1ccc(Cl)cc1"
## Output Not satisfied

Hey, just so you know, these numbers are from ChEMBL document CHEMBL3301361.
